# ASSAYED_TARGET: GLP-1R (Homo sapiens)
# Sequence (P43220 24-463): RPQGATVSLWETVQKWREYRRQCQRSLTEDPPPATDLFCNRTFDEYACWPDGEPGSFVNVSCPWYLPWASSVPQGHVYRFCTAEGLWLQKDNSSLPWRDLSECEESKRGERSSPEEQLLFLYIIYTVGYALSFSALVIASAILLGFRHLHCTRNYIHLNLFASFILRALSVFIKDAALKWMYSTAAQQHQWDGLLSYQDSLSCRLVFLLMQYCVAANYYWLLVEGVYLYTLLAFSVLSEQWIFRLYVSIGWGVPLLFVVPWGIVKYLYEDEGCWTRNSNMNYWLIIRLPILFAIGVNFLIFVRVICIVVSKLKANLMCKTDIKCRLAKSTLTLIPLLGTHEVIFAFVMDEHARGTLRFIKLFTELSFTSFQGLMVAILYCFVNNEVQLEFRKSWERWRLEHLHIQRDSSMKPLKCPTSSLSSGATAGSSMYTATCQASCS
# ASSAY: GLP-1R activation: cAMP increase in CHO cells stably expressing GLP-1R
# Format: cell-based
# TEST_CONTEXT: cAMP increase, CHO cells stably expressing GLP-1R, 10 point dose response, 30 minutes incubation; read-out: EC50
pEC50: −log10 of the molar value.
The threshold is inclusive: pEC50 of exactly 8 counts as condition met; values below receive condition not met.

SMILES_REPR | LABEL_VALUE
COCCn1c(Cc2ccc(-c3cccc(OCc4ccc(C#N)cc4F)n3)cc2)nc2ccc(C(=O)O)cc21 | condition not met
COCCn1c(Cc2ccc(-c3cccc(OCc4ccccc4COC)n3)cc2F)nc2ccc(C(=O)O)cc21 | condition not met
O=C(O)c1ccc2nc(Cc3c(F)cc(-c4cccc(OCc5ccc(C(F)F)cc5F)n4)cc3F)n(C[C@@H]3CCO3)c2c1 | condition met
COCCn1c(Cc2cc(F)c(-c3ccc(F)c(OCc4ccc(C(F)F)cc4F)n3)cc2F)nc2ccc(C(=O)O)cc21 | condition met
COCCn1c(Cc2ccc(-c3cccc(OCc4ccc(C#N)cc4F)n3)cc2C)nc2ccc(C(=O)O)cc21 | condition met
COCCn1c(Cc2ccc(-c3cccc(OCc4ccc(C#N)cc4F)n3)cc2S(C)(=O)=O)nc2ccc(C(=O)O)cc21 | condition not met
COCCn1c(Cc2ccc(-c3cccc(OCc4ccc(C#N)cc4F)n3)cc2C#CC2(C)COC2)nc2ccc(C(=O)O)cc21 | condition not met
O=C(O)c1ccc2nc(Cc3cc(F)c(-c4ccnc(OCc5ccc(Cl)cc5F)n4)cc3F)n(C[C@@H]3CCO3)c2c1 | condition met
COCCn1c(Cc2ccc(-c3ccnc(OCc4ccc(C#N)cc4OC)n3)cc2F)nc2ccc(C(=O)O)cc21 | condition met
COCCn1c(Cc2ccc(-c3cccc(NC(=O)c4ccccc4)n3)cc2F)nc2ccc(C(=O)O)cc21 | condition not met
COC[C@H]1C[C@@H](n2c(Cc3cc(F)c(-c4cccc(OCc5ccc(C#N)cc5F)n4)cc3F)nc3ccc(C(=O)O)cc32)C1 | condition not met
CC(=O)N1CCC[C@H](Cn2c(Cc3ccc(-c4cccc(OCc5ccc(C#N)cc5F)n4)cc3F)nc3ccc(C(=O)O)cc32)C1 | condition not met
N#Cc1ccc(COc2cccc(-c3cc(F)c(Cc4nc5ccc(C(=O)O)cc5n4[C@H]4CCNC4=O)cc3F)n2)c(F)c1 | condition not met
CC(C)(Cn1c(Cc2ccc(-c3cccc(OCc4ccc(C#N)cc4F)n3)cc2F)nc2ccc(C(=O)NS(=O)(=O)C3CC3)cc21)C(F)F | condition not met

----------
# ASSAY: Microsomal stability, human liver microsomes (predicted hepatic clearance)
# TEST_CONTEXT: predicted from in vitro microsomal stability data
OBSERVABLE: Predicted Hepatic Clearance (Pred. Cl.) (mL/min/kg)

COMPOUND | CMP | RECORDED_NUMBER
N#Cc1ccc(COc2cccc(-c3ccc(Cc4nc5c(F)cc(C(=O)O)cc5n4CC(O)CCO)c(F)c3)n2)c(F)c1 (stereo not drawn) | = | 2.17
COC(Cn1c(Cc2ccc(-c3cccc(OCc4ccc(C#N)cc4F)n3)cc2F)nc2ccc(C(=O)O)cc21)C(=O)Nc1nccs1 (single isomer, unassigned) [Example 338] | = | 13
COCCn1c([C@@H](C)c2ccc(-c3cccc(OCc4ccc(C#N)cc4F)n3)cc2)nc2ccc(C(=O)O)cc21 (racemic) | = | 5
COCCn1c(Cc2ccc(-c3cccc(OCc4cccc(COC)c4)n3)cc2F)nc2ccc(C(=O)O)cc21 | = | 12
N#Cc1ccc(COc2cccc(-c3ccc(Cc4nc5ccc(C(=O)O)cc5n4Cc4cocn4)c(F)c3)n2)c(F)c1 | = | 3.75
N#Cc1ccc(COc2cccc(-c3ccc(Cc4nc5ccc(C(=O)O)cc5n4C4(CF)CC4)cc3F)n2)c(F)c1 | = | 8.5
COCCn1c(Cc2ccc(-c3cccc(OCc4ccc(C#N)cc4F)n3)cc2S(C)(=O)=O)nc2ccc(C(=O)O)cc21 | = | 8.3
N#Cc1ccc(COc2ncc(F)c(-c3ccc(Cc4nc5c(F)cc(C(=O)O)cc5n4C[C@@H]4CCO4)cc3)n2)c(F)c1 | = | 6.17
COCCn1c(Cc2ccc(-c3cccc(OCc4cnc(Cl)s4)n3)cc2F)nc2ccc(C(=O)O)cc21 | = | 8.3
O=C(O)c1ccc2nc(Cc3cc(F)c(-c4nccc(OCc5ccc(C(F)(F)F)cc5F)n4)cc3F)n(C[C@@H]3CCO3)c2c1 | = | 6
COCC1(Cn2c(Cc3cc(F)c(-c4cccc(OCc5ccc(C#N)cc5F)n4)cc3F)nc3ccc(C(=O)O)cc32)CCC1 | = | 6.67
COCCn1c(Cc2ccc(-c3cccc(OCc4cccn(C)c4=O)n3)cc2F)nc2ccc(C(=O)O)cc21 | = | 6.5
C[C@]1(Cn2c(Cc3ccc(-c4cccc(OCc5ccc(C#N)cc5F)n4)cc3F)nc3ccc(C(=O)O)cc32)CCO1 | = | 5.17
N#CCC1(Cn2c(Cc3ccc(-c4ccnc(OCc5ccc(C#N)cc5F)n4)c(F)c3)nc3ccc(C(=O)O)nc32)CC1 | < | 1.83
N#Cc1ccc(COc2ncc(F)c(-c3cc(F)c(Cc4nc5c(F)cc(C(=O)O)cc5n4CC4(CF)CC4)cc3F)n2)c(F)c1 | = | 7.5
N#Cc1ccc(COc2cccc(-c3ccc(Cc4nc5ccc(C(=O)O)cc5n4CC4(O)COC4)c(F)c3)n2)c(F)c1 | = | 4.67
O=C(O)c1ccc2nc(Cc3ccc(-c4cccc(OCc5ccc(Cl)cc5F)n4)c(F)c3)n(CC3(CF)CC3)c2c1 | = | 4.17
N#CCC1(Cn2c(Cc3ccc(-c4cccc(OCc5ccc(C#N)cc5F)n4)cc3F)nc3ccc(C(=O)NS(=O)(=O)C4CC4)cc32)CC1 | = | 4.33
N#Cc1ccc(COc2nccc(-c3cc(F)c(Cc4nc5c(F)cc(C(=O)O)cc5n4C[C@@H]4CCO4)cc3F)n2)c(F)c1 | = | 3.5
COCCn1c(Cc2ccc(-c3cccnc3OCc3ccc(C#N)cc3F)c(F)c2)nc2ccc(C(=O)O)cc21 | = | 4.33
COCCn1c(Cc2cc(F)c(-c3cccc(OCc4ccc(C#N)cc4F)n3)cc2F)nc2cc(F)c(C(=O)O)cc21 | = | 7.83
O=C(O)c1ccc2nc(Cc3cc(F)c(-c4cccc(OCc5ccc(C(F)F)cc5F)n4)cc3F)n(CC34CC(CO3)C4)c2c1 | = | 3.17
N#CCCn1c(Cc2cc(F)c(-c3cccc(OCc4ccc(C#N)cc4F)n3)cc2F)nc2ccc(C(=O)O)cc21 | = | 4.67
COCCn1c(Cc2ccc(-c3cccc(OCc4cccc(C(C)C)c4OC)n3)cc2F)nc2ccc(C(=O)O)cc21 | = | 7.67
COCCn1c(Cc2ccc(-c3cccc(OCc4cccc(C5CC5)c4)n3)cc2F)nc2ccc(C(=O)O)cc21 | = | 4.83
COCCn1c(Cc2ccc(-c3nc(OCc4ccc(C#N)cc4F)ccc3C#N)cc2F)nc2ccc(C(=O)O)cc21 | = | 10.7
COCCn1c(Cc2ccc(-c3cccc(OCc4ccc(Cl)c(C(C)C)c4)n3)cc2F)nc2ccc(C(=O)O)cc21 | = | 5.5
